Compiled literature Ki, tested on UniProt:O75116.

Data point: `NCc1ccc(Oc2ccnc3[nH]cc(-c4cncc(OCc5ccccc5)c4)c23)cc1` ; Ki = > 30 nM

Data point: CN(C)CC(NC(=O)c1ccc(-c2ccncc2)cc1)c1ccccc1 (stereo not drawn) ; Ki = < 50 nM

Data point: `c1ccc(CNc2nccc(-c3c[nH]c4nccc(Oc5ccc6c(c5)CNCC6)c34)n2)cc1` ; Ki = < 3 nM

Data point: `Cc1c[nH]c2ncnc(Oc3ccc(C[C@H](N)C(=O)NC4(CCO)CCCCC4)cc3F)c12` ; Ki = < 3 nM

Data point: `C[C@@H](NC(=O)c1ccc(-c2ccncc2)c(F)c1)c1cccc2ccccc12` ; Ki = < 50 nM

Data point: `Cc1cnccc1-c1ccc(C(=O)N[C@H](C)c2ccccc2)cc1` ; Ki = < 50 nM

Data point: `c1cc(-c2c[nH]c3nccc(Oc4ccc5c(c4)CNCC5)c23)cc(NCC2CC2)n1` ; Ki = < 3 nM

Data point: `c1cc(-c2c[nH]c3nccc(Oc4ccc5c(c4)CNCC5)c23)cc(NCc2nccs2)n1` ; Ki = < 3 nM

Data point: CC(NC(=O)c1ccc(-c2ccncc2)cc1)c1cccnc1 (stereo not drawn) ; Ki = 50 to 500 nM

Data point: `C[C@@H](NC(=O)c1ccc(-c2ccncc2)cc1Cl)c1ccccc1` ; Ki = 50 to 500 nM

Data point: `c1cc(-c2c[nH]c3nccc(Oc4ccc5c(c4)CNCC5)c23)cc(NC[C@H]2CCCO2)n1` ; Ki = < 3 nM

Data point: `COc1cccc([C@H](C)NC(=O)c2ccc(-c3ccncc3)c(F)c2)c1` ; Ki = 50 to 500 nM

Data point: `c1nc(NCc2nccs2)cc(-c2c[nH]c3nccc(Oc4ccc5c(c4)CNCC5)c23)n1` ; Ki = < 3 nM

Data point: `Cc1c[nH]c2nccc(Oc3ccc(C[C@H](N)C(=O)NC4CCN(CC5CC5)CC4)cc3F)c12` ; Ki = < 3 nM

Data point: `c1ccc(CNc2cc(-c3c[nH]c4nccc(Oc5ccc6c(c5)CNCC6)c34)ncn2)cc1` ; Ki = < 3 nM

Data point: COc1ccc(C(C)NC(=O)c2ccc(-c3ccncc3)cc2)c2ccccc12 (stereo not drawn) ; Ki = 50 to 500 nM

Data point: `Cc1c[nH]c2nccc(Oc3ccc(C[C@H](N)C(=O)N4CCC(O)(CO)CC4)cc3F)c12` ; Ki = < 3 nM

Data point: Cc1ccc(C(CO)NC(=O)c2ccc(-c3ccncc3)cc2)c(C)c1 (stereo not drawn) ; Ki = 50 to 500 nM

Data point: `Cc1c[nH]c2nccc(Oc3ccc(C[C@H](N)C(=O)N4CCc5ccncc5C4)cc3F)c12` ; Ki = < 3 nM

Data point: `C[C@@H](NC(=O)c1ccc(-c2ccncc2)cc1)c1ccc2ccccc2c1` ; Ki = < 50 nM

Data point: `Cc1c[nH]c2nccc(Oc3c(F)cc(C[C@H](N)C(=O)N4CCC(S(=O)(=O)c5ccccc5)CC4)cc3F)c12` ; Ki = < 3 nM

Data point: `Fc1cc2c(cc1Oc1ncnc3[nH]cc(-c4ccnc(NCc5ccccc5)c4)c13)CNCC2` ; Ki = < 3 nM

Data point: `Cc1cnccc1-c1ccc(C(=O)N[C@H](C)c2ccc(Cl)cc2)cc1` ; Ki = 50 to 500 nM

Data point: `Cc1c[nH]c2nccc(Oc3ccc(C[C@H](N)C(=O)N4C[C@@H]5C[C@H]4CN5C4CC4)cc3F)c12` ; Ki = < 3 nM

Data point: `C[C@@H](NC(=O)c1ccc(-c2ccncc2)cc1)c1ccccn1` ; Ki = 50 to 500 nM

Data point: `Cc1c[nH]c2nccc(Oc3ccc(C[C@H](N)C(=O)N4CCN(C)CC45CC5)cc3F)c12` ; Ki = < 3 nM

Data point: `COc1cccc([C@@H](C)NC(=O)c2ccc(-c3ccncc3)cc2OC)c1` ; Ki = < 50 nM

Data point: `NCc1cc(F)c(Oc2ccnc3[nH]cc(-c4ccnc(NCC5CC5)c4)c23)c(F)c1` ; Ki = < 3 nM

Data point: CC(C)Oc1cccc(C(C)NC(=O)c2ccc(-c3ccncc3)cc2)c1 (stereo not drawn) ; Ki = < 50 nM

Data point: `Cc1c[nH]c2nccc(Oc3ccc(C[C@H](N)C(=O)N(C)C)cc3F)c12` ; Ki = < 3 nM

Data point: `CC(C)OCC(=O)Nc1cc(-c2c[nH]c3nccc(Oc4ccc5c(c4)CNCC5)c23)ccn1` ; Ki = < 3 nM

Data point: `COc1cccc([C@H](C)NC(=O)c2ccc(-c3ccncc3C)cc2)c1` ; Ki = 50 to 500 nM

Data point: `O=C(Nc1cc(-c2c[nH]c3nccc(Oc4ccc5c(c4)CNCC5)c23)ccn1)C1CCCCC1` ; Ki = < 3 nM
